# Tested on: Puccinia recondita f. sp. tritici
# testProtocol: Test I: wheat leaf rust on wheat seedlings, sprayed the day before inoculation, visual disease rating
# Format: in vivo
# assaySetup: Puccinia recondita, 168 h; 200 ppm; 100 = 100% disease control, 0 = no control relative to controls
pest or weed control at 200 ppm values, listed per item
I only need the number, in %, no unit after it.

[[record]]
molsmiles = "COc1ccc(F)c(-c2c(C)nc(C)n2-c2ccc(F)cc2)c1F"
assaytarget = "Puccinia recondita f. sp. tritici"
assayresult = 100


# get_value(readout='pest or weed control at 200 ppm', item= Cn1nc(Br)c(-c2c(F)cccc2F)c1-c1ccc(Cl)cc1 )
91

Bench note: what pest or weed control at 200 ppm did Fc1ccc(-c2c(Cl)nnn2-c2ccc(Cl)cc2)c(F)c1 show?
28

Return reported pest or weed control at 200 ppm; argument: Cc1nc(Cl)c(-c2c(F)ccc(C#N)c2F)n1-c1ccc(Cl)cc1
100

Given N#CCc1nc(Br)c(-c2c(F)cccc2F)n1-c1ccc(Cl)cc1 , state its recorded pest or weed control at 200 ppm.
85
